# TEST DESCRIPTION: qHTS assay to identify small molecule antagonists of the estrogen receptor beta (ER-beta) signaling pathway - cell viability counter screen (AID 1259382);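 further: HEK293T cells carrying ER-beta-UAS-bla reporter stimulated with estradiol; nearly all actives have a fitted effect of over 55% in size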
# CONDITION SET: ER-beta-UAS-bla HEK293T viability, CellTiter-Glo luminescence, 16 h; series mostly up to 92.4 µM
Records with an inconclusive call do not appear. The source made the active and inactive calls. The call rests on the fitted dose curve; in most records, active means well fitted cell-killing curve with a large enough effect in the repeat runs; inconclusive means weak or mixed curves; inactive means flat fitted curve, though single readings scatter.
Respond with a class label; see active, inactive

Answer briefly: the call reported for `CN(C)c1ccc(C(=O)c2ccc(N(C)C)cc2)cc1` in this assay. inactive

I'd appreciate the recorded outcome for `CCCCCCCCC(=O)NCc1ccc(O)c(OC)c1` from this test. inactive

What was the test verdict on `O=S(=O)(Oc1ccc(Cl)cc1)c1ccc(Cl)cc1` ? inactive

Recorded test outcome, item `CCOP(=S)(OCC)O/N=C(\C#N)c1ccccc1` inactive

What call does the record list for `Oc1c(Cl)c(Cl)c(Cl)c(Cl)c1Cl` ? inactive

Which outcome was assigned to `COP(=S)(OC)Oc1ccc([N+](=O)[O-])cc1` in this test? inactive

----------
# TEST DESCRIPTION: A CellTox Green Cytotoxicity Assay to monitor cytotoxicity in HEK293 cells - 40 hour (AID 1224871); further: nearly all actives have a fitted effect of over 45% in size
# CONDITION SET: CellTox Green fluorescence; series mostly up to 76.8 µM
Inconclusive results are not listed. Activity calls are given as the source filed them. The call rests on the fitted dose curve; in most records, active means well fitted activation curve with a large enough effect in the repeat runs; inconclusive means weak or mixed curves; inactive means flat fitted curve, though single readings scatter.
Just give me one of these, please: active, inactive

- MOLECULE: "Nc1cccnc1"
  CAT: "inactive"

What did this assay record as the result for `C=CC(=O)OCCO` ? inactive

Write down the call the test reported for this molecule. Item: CC1(C)C(C=C(Cl)Cl)C1C(=O)OC(C#N)c1cccc(Oc2ccccc2)c1 (stereo not given) inactive

// return assay outcome for `COP(=S)(OC)Oc1cc(Cl)c(Cl)cc1Cl` inactive

----------
# TEST DESCRIPTION: qHTS assay for identifying genotoxic compounds that show differential cytotoxicity against isogenic chicken DT40 cell lines with known DNA damage response pathways - Rev3 mutant cell line (AID 743014); further: nearly all actives have a fitted effect of over 55% in size
# CONDITION SET: chicken DT40 Rev3-/- viability, CellTiter-Glo, 40 h; series mostly up to 68.4 µM
Inconclusive results are not listed. Activity calls are given as the source filed them. Calls follow the shape of the dose curve; as a rule, active = well fitted cell-killing curve with a large enough effect in the repeat runs; inconclusive = weak or mixed curves, or effect the other way; inactive = no such curve, though single readings can be large or run the other way.
// classify into active, inactive

- SMILES STRING: "O=[N+]([O-])c1ccc(O)c([N+](=O)[O-])c1"
  CAT: "inactive"
- SMILES STRING: "O=[N+]([O-])c1cccc2ccccc12"
  CAT: "inactive"
- SMILES STRING: "NNC(=S)NN"
  CAT: "active"
- SMILES STRING: "N#CCCCl"
  CAT: "inactive"
- SMILES STRING: "Oc1c(Cl)c(Cl)c(Cl)c(Cl)c1Cl"
  CAT: "inactive"
- SMILES STRING: "CCN(N=O)C(N)=O"
  CAT: "inactive"
- SMILES STRING: "CCCCOCCOP(=O)(OCCOCCCC)OCCOCCCC"
  CAT: "active"

Here's the next entry for you.
What outcome does the record of this test show for `Oc1cc(Cl)ccc1Cl` ? inactive

----------
# TEST DESCRIPTION: qHTS assay to identify small molecule antagonists of the estrogen receptor alpha (ER-alpha) signaling pathway using the BG1 cell line in the presence of 0.1 nM 17-beta-estradiol - cell viability counter screen (AID 1259241); further: nearly all actives have a fitted effect of over 40% in size
# CONDITION SET: VM7Luc4E2 (BG1) viability, CellTiter-Fluor protease, 22 h, 0.1 nM estradiol agonist added; series mostly up to 92.4 µM
Results filed as inconclusive are left out. Calls of active or inactive are those of the source. The call rests on the fitted dose curve; in most records, active means well fitted cell-killing curve with a large enough effect in the repeat runs; inconclusive means weak or mixed curves, or effect the other way; inactive means flat fitted curve, though single readings scatter.
Pick from active, inactive when you respond.

// below: answered compounds
- COMPOUND: "Nc1cccnc1"
  CAT: "inactive"
- COMPOUND: "CCCCCCCCCCCOC(=O)c1ccccc1C(=O)OCCCCCCCCCCC"
  CAT: "inactive"

What classification did `Nc1c(Cl)cc([N+](=O)[O-])cc1Cl` end up with in this test? inactive

Recorded call for `CC(C)(C)c1ccccc1O` ? inactive

Would you mind telling me which call this test gave CC(O)CCO (centres undefined) ? inactive

Answer briefly: the call reported for `Cc1ccc(N)c(N)c1` in this assay. inactive

Please state the recorded outcome for this compound: `Clc1nc(Cl)nc(Cl)n1` inactive

Answer briefly: the call reported for `Nc1ccncc1` in this assay. inactive

Please share the test call associated with `COP(=S)(OC)Oc1ccc([N+](=O)[O-])cc1` . inactive
